Assay: MTT assay, cell viability
Assay type: cell-based
Details: human, MDA-MB-231 breast cancer cells, 0.85 μg/ml, read-out: MTT incorporation (cell viability) as percentage of control
Reported metric: viability at 24 h, 0.85 μg/ml

[[record]]
compound = "NC(=O)N1c2ccccc2C=Cc2ccccc21 [CBZ, Carbamazepine]"
reported_metric = "viability at 24 h, 0.85 μg/ml"
assay_result = "60%"

[[record]]
compound = "Cc1cc(C)nc(NS(=O)(=O)c2ccc(N)cc2)n1"
reported_metric = "viability at 24 h, 0.85 μg/ml"
assay_result = "50%"

